# Test system: LG0567-F671-PDC KRAS tumor spheroid viability;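 further: drug exposure lasted seven days after spheroids formed for three days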
# methodDescription: Anticancer human tumor LG0567-F671-PDC patient-derived lung adenocarcinoma cell line growth inhibition [KRAS2]; active means viability on the fitted dose curve at most 10% of control; inactive means the rest
# runParameters: second compound 0.1 µM; first compound 0.0316 µM; spheroids with HUVEC and MSC
Form entry, call: pick from active, inactive

compound	group
CC(=O)OC12COC1CC(O)C1(C)C(=O)C(O)C3=C(C)C(OC(=O)C(O)C(NC(=O)OC(C)(C)C)c4ccccc4)CC(O)(C(OC(=O)c4ccccc4)C21)C3(C)C (configuration not stated) + COc1cc2nc(C)nc(NC(C)c3cc(N)cc(C(F)(F)F)c3)c2cc1OC1CCOC1	inactive
CC(C)NCC(C(=O)N1CCN(c2ncnc3c2C(C)CC3O)CC1)c1ccc(Cl)cc1 (configuration not stated) + COc1cc2nc(C)nc(NC(C)c3cc(N)cc(C(F)(F)F)c3)c2cc1OC1CCOC1	inactive
CC1COCCN1c1cc(-c2ccnn2C)c2ccnc(-c3ccn[nH]3)c2n1 (configuration not stated) + CC1OCC2(CCN(c3cnc(Sc4ccnc(N)c4Cl)c(N)n3)CC2)C1N	inactive
CC(=O)Nc1cccc(-n2c(=O)n(C3CC3)c(=O)c3c(Nc4ccc(I)cc4F)n(C)c(=O)c(C)c32)c1 + C=CC(=O)N1CCN(c2nc(OCC3CCCN3C)nc3c2CCN(c2cccc4cccc(C)c24)C3)CC1CC#N	active
O=C(c1cc(Cc2n[nH]c(=O)c3ccccc23)ccc1F)N1CCN(C(=O)C2CC2)CC1 + CNCc1ccccc1-c1csc(C(C)Nc2nc(C)nc3cc(OC)c(OC)cc23)c1	inactive

Query: // return assay outcome for CC1COCCN1c1cc(-c2ccnn2C)c2ccnc(-c3ccn[nH]3)c2n1 (configuration not stated) + COc1cc2nc(C)nc(NC(C)c3cc(N)cc(C(F)(F)F)c3)c2cc1OC1CCOC1
Reply: inactive

Query: // return assay outcome for COc1cc(Nc2ncc3c(n2)-c2ccc(Cl)cc2C(c2c(F)cccc2OC)=NC3)ccc1C(=O)O + COc1cc2nc(C)nc(NC(C)c3cc(N)cc(C(F)(F)F)c3)c2cc1OC1CCOC1
Reply: inactive

Query: Assay result, entry CC1OCC2(CCN(c3cnc(Sc4ccnc(N)c4Cl)c(N)n3)CC2)C1N (configuration not stated) + COc1cc2nc(C)nc(NC(C)c3cc(N)cc(C(F)(F)F)c3)c2cc1OC1CCOC1 — outcome?
Reply: inactive

Query: Returns: the outcome recorded for CC(C)n1nc(-c2ccc3oc(N)nc3c2)c2c(N)ncnc21 + CNCc1ccccc1-c1csc(C(C)Nc2nc(C)nc3cc(OC)c(OC)cc23)c1 in this assay.
Reply: inactive
